- System: S. typhimurium/E. coli reverse mutation, colony counts
- experiment: Bacterial reverse mutation test (aka Ames test) summary data;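 further: His-minus Salmonella and trp-minus E. coli WP2 uvrA pKM101 with or without liver S9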
Results filed as inconclusive are left out. The source made the active and inactive calls. How the calls were made is not given here.
value-type: outcome

Example compounds with recorded outcome:
compound | value-type | meas-value
O=S(=O)(O)c1ccc(N=Nc2cc(S(=O)(=O)O)c3ccccc3c2O)c2ccccc12 | outcome | inactive; negative
CCCCC(CC)COCCCN (stereo unspecified) | outcome | inactive; negative
CN(C)N=O | outcome | active; positive
COS(C)(=O)=O | outcome | active; positive
COC(=O)c1ccccc1N | outcome | inactive; negative

Fill in the blank: the reported outcome of [Cl-].[Cl-].[Sn+2] is ____. inactive; negative

Which outcome is listed for OCCC(F)(F)C(F)(F)C(F)(F)C(F)(F)C(F)(F)C(F)(F)C(F)(F)C(F)(F)C(F)(F)C(F)(F)F ? inactive; negative

What value of measured outcome is listed for Brc1cc(Br)c(Oc2cc(Br)c(Br)cc2Br)cc1Br ? inactive; negative

// outcome lookup, key: CC(C)(c1ccc(OCC2CO2)cc1)c1ccc(OCC2CO2)cc1 (stereo unspecified) active; positive

Look up outcome: NC(=O)NC(N)=O active; positive

Fill in: outcome of O=C(O)C(Br)Br is ___ active; positive
